- System: UACC-257
- assay summary: Cytotoxicity against human UACC257 cells assessed as cell growth at 10 uM after 48 hrs relative to control
- Type: functional
- recorded conditions: UACC-257, 48 h, read-out: Activity
measurement type: growth at 10 µM (%)
Response body: numeric value in %, unit text excluded.

test smiles	growth at 10 µM (%)
COC(=O)[C@@H](NC(=O)N[C@@H](Cc1ccccc1)C(=O)N[C@H]1CCCCNC(=O)/C=C/[C@H](Cc2c[nH]c3ccccc23)NC1=O)C(C)C	87.1
COC(=O)[C@@H](NC(=O)N[C@@H](Cc1ccccc1)C(=O)N[C@H]1CCCCNC(=O)/C=C/[C@H](C(C)C)NC1=O)C(C)C	58.5
COC(=O)[C@@H](NC(=O)N[C@H](C(=O)N[C@H]1CCCCNC(=O)/C=C/[C@H](Cc2c[nH]c3ccccc23)NC1=O)C(C)C)C(C)C	65.4

*Q* Param item = `COC(=O)[C@@H](NC(=O)N[C@@H](Cc1ccccc1)C(=O)N[C@H]1CCCCNC(=O)/C=C/[C@H](Cc2ccccc2)NC1=O)C(C)C` ; retrieve measured growth at 10 µM.
*A* 16.4

*Q* What measured growth at 10 µM goes with `COC(=O)[C@@H](NC(=O)N[C@H](C(=O)N[C@H]1CCCCNC(=O)/C=C/[C@H](C(C)C)NC1=O)C(C)C)C(C)C` ?
*A* 33.4

* * *

- Tested on: CCRF-CEM
- assay summary: Cytotoxicity against human CCRF-CEM cells assessed as cell growth at 10 uM after 48 hrs relative to control
- Format: functional
- recorded conditions: read-out: Activity
measurement type: growth at 10 µM (%)
Give the value in % but do not write % after it.

Use the examples below as a reference point.
test smiles	growth at 10 µM (%)
COC(=O)[C@@H](NC(=O)N[C@H](C(=O)N[C@H]1CCCCNC(=O)/C=C/[C@H](C(C)C)NC1=O)C(C)C)C(C)C	15.1
COC(=O)[C@@H](NC(=O)N[C@@H](Cc1ccccc1)C(=O)N[C@H]1CCCCNC(=O)/C=C/[C@H](C(C)C)NC1=O)C(C)C	55.1
COC(=O)[C@@H](NC(=O)N[C@@H](Cc1ccccc1)C(=O)N[C@H]1CCCCNC(=O)/C=C/[C@H](Cc2ccccc2)NC1=O)C(C)C	9.59
COC(=O)[C@@H](NC(=O)N[C@H](C(=O)N[C@H]1CCCCNC(=O)/C=C/[C@H](Cc2c[nH]c3ccccc23)NC1=O)C(C)C)C(C)C	15.8

*Q* Sample `COC(=O)[C@@H](NC(=O)N[C@@H](Cc1ccccc1)C(=O)N[C@H]1CCCCNC(=O)/C=C/[C@H](Cc2c[nH]c3ccccc23)NC1=O)C(C)C` — what was its growth at 10 µM?
*A* 58.2

* * *

Attribute: pKi
- system under test: Proteasome Macropain subunit MB1 (Homo sapiens)
- Sequence (P28074 whole entry): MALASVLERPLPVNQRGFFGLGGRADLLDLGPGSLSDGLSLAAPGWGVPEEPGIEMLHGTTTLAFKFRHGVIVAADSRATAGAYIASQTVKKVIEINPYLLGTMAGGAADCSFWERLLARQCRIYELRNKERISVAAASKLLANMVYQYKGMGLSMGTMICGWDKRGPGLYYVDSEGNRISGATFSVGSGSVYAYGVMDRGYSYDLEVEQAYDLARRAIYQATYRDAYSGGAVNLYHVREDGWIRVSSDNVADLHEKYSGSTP
- assay summary: Inhibition of human 20S proteasome beta5 subunit using Suc-LLVY-AMC as substrate by fluorescence assay
Expect pKi as a plain number equal to -log10 of the molar concentration.

*Q* What measured pKi is associated with `COC(=O)[C@@H](NC(=O)N[C@H](C(=O)N[C@H]1CCCCNC(=O)/C=C/[C@H](Cc2cccc(C)c2)NC1=O)C(C)C)C(C)C` on Proteasome Macropain subunit MB1 (Homo sapiens)?
*A* 5.63

*Q* pKi of `COC(=O)[C@@H](NC(=O)N[C@H](C(=O)N[C@H]1CCCCNC(=O)/C=C/[C@H](Cc2ccc(Cl)cc2)NC1=O)C(C)C)C(C)C` on Proteasome Macropain subunit MB1 (Homo sapiens)?
*A* 5.91

*Q* Tell me reported pKi for `COC(=O)[C@@H](NC(=O)N[C@H](C(=O)N[C@H]1CCCCNC(=O)/C=C/[C@H](Cc2c[nH]c3ccccc23)NC1=O)C(C)C)C(C)C` , tested with Proteasome Macropain subunit MB1 (Homo sapiens).
*A* 5.77

*Q* Record `COC(=O)[C@@H](NC(=O)N[C@H](C(=O)N[C@H]1CCCCNC(=O)/C=C/[C@H](Cc2cccc(C(F)(F)F)c2)NC1=O)C(C)C)C(C)C` : what is its pKi with Proteasome Macropain subunit MB1 (Homo sapiens)?
*A* 5.12

*Q* # query: pKi | item `COC(=O)[C@@H](NC(=O)N[C@H](C(=O)N[C@H]1CCCCNC(=O)/C=C/[C@H](CC(C)C)NC1=O)C(C)C)C(C)C` | system: Proteasome Macropain subunit MB1 (Homo sapiens)
*A* 5.49

*Q* // lookup pKi | system=Proteasome Macropain subunit MB1 (Homo sapiens) | key= `COC(=O)[C@@H](NC(=O)N[C@H](C(=O)N[C@H]1CCCCNC(=O)/C=C/[C@H](C(C)C)NC1=O)C(C)C)C(C)C`
*A* 5.67

* * *

- Test system: SNB-19
- assay summary: Cytotoxicity against human SNB19 cells assessed as cell growth at 10 uM after 48 hrs relative to control
- Type: functional
- recorded conditions: SNB-19, 48 h, read-out: Activity
Param label: returns class 1 when growth at 10 µM < 40%, returns class 0 otherwise, including exact equality.

Worked examples follow.
test smiles	system under test	assigned label
COC(=O)[C@@H](NC(=O)N[C@@H](Cc1ccccc1)C(=O)N[C@H]1CCCCNC(=O)/C=C/[C@H](C(C)C)NC1=O)C(C)C	SNB-19	class 0
COC(=O)[C@@H](NC(=O)N[C@H](C(=O)N[C@H]1CCCCNC(=O)/C=C/[C@H](C(C)C)NC1=O)C(C)C)C(C)C	SNB-19	class 1

*Q* Take the compound `COC(=O)[C@@H](NC(=O)N[C@@H](Cc1ccccc1)C(=O)N[C@H]1CCCCNC(=O)/C=C/[C@H](Cc2c[nH]c3ccccc23)NC1=O)C(C)C` and say whether its growth at 10 µM is less than 40%.
*A* class 0

*Q* Threshold test, growth at 10 µM < 40%: `COC(=O)[C@@H](NC(=O)N[C@H](C(=O)N[C@H]1CCCCNC(=O)/C=C/[C@H](Cc2c[nH]c3ccccc23)NC1=O)C(C)C)C(C)C`
*A* class 0

* * *

- Test system: TK-10
- assay summary: Cytotoxicity against human TK10 cells assessed as cell growth at 10 uM after 48 hrs relative to control
- Type: functional
- recorded conditions: TK-10, 48 h, read-out: Activity
# binarize growth at 10 µM: threshold 90% inclusive, high side criterion met, low side criterion not met

test smiles	assigned label
COC(=O)[C@@H](NC(=O)N[C@H](C(=O)N[C@H]1CCCCNC(=O)/C=C/[C@H](Cc2c[nH]c3ccccc23)NC1=O)C(C)C)C(C)C	criterion met
COC(=O)[C@@H](NC(=O)N[C@@H](Cc1ccccc1)C(=O)N[C@H]1CCCCNC(=O)/C=C/[C@H](Cc2ccccc2)NC1=O)C(C)C	criterion not met
COC(=O)[C@@H](NC(=O)N[C@@H](Cc1ccccc1)C(=O)N[C@H]1CCCCNC(=O)/C=C/[C@H](C(C)C)NC1=O)C(C)C	criterion met

*Q* Has `COC(=O)[C@@H](NC(=O)N[C@@H](Cc1ccccc1)C(=O)N[C@H]1CCCCNC(=O)/C=C/[C@H](Cc2c[nH]c3ccccc23)NC1=O)C(C)C` a recorded growth at 10 µM greater than or equal to 90%?
*A* criterion met

*Q* Quick check: does `COC(=O)[C@@H](NC(=O)N[C@H](C(=O)N[C@H]1CCCCNC(=O)/C=C/[C@H](C(C)C)NC1=O)C(C)C)C(C)C` have growth at 10 µM greater than or equal to 90%?
*A* criterion not met

* * *

- Test system: NCI-H226
- assay summary: Cytotoxicity against human NCI-H226 cells assessed as cell growth at 10 uM after 48 hrs relative to control
- Format: functional
- recorded conditions: NCI-H226, 48 h, read-out: Activity
measurement type: growth at 10 µM (%)
# value in %; strip the unit string

// solved cases for growth at 10 µM follow
test smiles	scale unit	growth at 10 µM
COC(=O)[C@@H](NC(=O)N[C@@H](Cc1ccccc1)C(=O)N[C@H]1CCCCNC(=O)/C=C/[C@H](Cc2ccccc2)NC1=O)C(C)C	%	-44.2
COC(=O)[C@@H](NC(=O)N[C@@H](Cc1ccccc1)C(=O)N[C@H]1CCCCNC(=O)/C=C/[C@H](Cc2c[nH]c3ccccc23)NC1=O)C(C)C	%	65.7
COC(=O)[C@@H](NC(=O)N[C@H](C(=O)N[C@H]1CCCCNC(=O)/C=C/[C@H](Cc2c[nH]c3ccccc23)NC1=O)C(C)C)C(C)C	%	15.1
COC(=O)[C@@H](NC(=O)N[C@@H](Cc1ccccc1)C(=O)N[C@H]1CCCCNC(=O)/C=C/[C@H](C(C)C)NC1=O)C(C)C	%	54.7

*Q* Using the record for `COC(=O)[C@@H](NC(=O)N[C@H](C(=O)N[C@H]1CCCCNC(=O)/C=C/[C@H](C(C)C)NC1=O)C(C)C)C(C)C` , report its growth at 10 µM.
*A* -24

These entries and their values trace back to ChEMBL document CHEMBL3612027.
